B1: TPR t1 (parent)
chain: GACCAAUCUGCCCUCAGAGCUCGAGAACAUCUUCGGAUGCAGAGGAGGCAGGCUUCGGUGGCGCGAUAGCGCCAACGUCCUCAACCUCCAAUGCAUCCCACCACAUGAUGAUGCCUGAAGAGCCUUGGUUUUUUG

# Variants of: B1
# procedureSummary: polymerase ribozyme fitness, log enrichment relative to wild type (log ratio); higher = more active; in vitro selection for triplet polymerase activity
metricName: polymerase ribozyme fitness (log ratio)

U9A C72U G110C U130A :: -4.28
A66U C123A :: 0.285
C73A A108G U116A C123U :: -5.63
A2U C4A U33G C49G G58C A121C :: -5.98
U21G G23U A27G A83C U112G :: -7.42
C12A C64A :: -5.04
C53U G57A G60C G61A C115U :: -4.03
C13A G61C A90C :: -5.48
G71C G113A :: -1.54
G60A C97G G117C :: -6.67
C99G G120A :: -7.03
A37C :: -0.431
C20U U96A U130G :: -4.47
C8A G44U G52A :: -0.478
G45U C72G :: -1.73
A50C C82U G117U :: -2.93
C3A U32A C64G C99A :: -7.73
U21A C62U U92C U116C A119G :: 0.3
U78C A83U C115A :: -0.234
A50C C53U C56A :: -0.754
C20A U131A :: -3.53
A5G U133A :: -0.954
A37U G52A G61A A105G G127C :: -4.21
U9A C85A C97U G117C C124A :: -3.01
C80U G120C G127C :: -0.289
G61C C89G G113U U133C :: -4.45
C11G C80U :: -0.0495
U33C A37C G42U G69U A111C C115A G127C U133G :: -5.26
G93U A121U :: 1.23
A5U A41U G69U :: 0.0184
A16G :: -0.761
U9G A111U A118U G120A :: -2.78
C3A G36A C64U C123G :: -0.723
A43C G44C :: -1.05
G10U C56A U59C U112A :: -0.649
C8G G44A G63U U125G :: -2.03
C56G C72A :: -2.48
C56A C72U G110A G122U :: -2.87
C73G A111U :: -4.08
C40G C72G C73A U78G :: -4.57
C12U C22U U59C C89G U109A U116A C123G :: -7.4
C13G U54C G63A A100U U109A U131G :: -6.38
G23A C53U :: -5.33
A46U U96A :: -1.81
A26U U32C C94A :: -4.33
G61A A84C :: 0.126

// data source = the RNAGym collection of RNA variant scans (doi:10.1073/pnas.2313332121)
